Quick reference: melting point of the listed items.

Here are 10 compounds together with their reported answers.
{"compound": "CCCC(CCC)NC(=O)c1ccc2oc(CCl)nc2c1", "result": "108 to 109 °C"}
{"compound": "FC(F)(F)c1cccc(N=c2ccn3ccccc3c2)c1", "result": "134 to 135 °C"}
{"compound": "Cc1cc(NC(=O)c2cccc(CSc3cnccn3)c2)ccc1C(C)C", "result": "69 to 73 °C"}
{"compound": "CC(=O)NC1=NN(c2ccc(Cl)cc2)C(C)C1 (stereo unspecified)", "result": "167 to 169 °C"}
{"compound": "N#CCNS(=O)(=O)c1ccccc1", "result": "81 to 83 °C"}
{"compound": "CCn1c(=O)c(=O)[nH]c2cc([N+](=O)[O-])c(-n3cccc3)cc21", "result": "> 300 °C"}
{"compound": "Cn1ccc2c(N3CCN(CC4CCc5ccccc5N4C(=O)C4CCCCC4)CC3)cccc21 (stereo unspecified)", "result": "66 to 70 °C"}
{"compound": "CNc1nc(Br)cnc1N", "result": "121 °C"}
{"compound": "Cc1nc(-n2cnn(Cc3ccc(F)cc3)c2=O)sc1CO", "result": "164 to 166 °C"}
{"compound": "O=C(Oc1ccccc1)c1cc(O)c(O)c(O)c1", "result": "190 to 191 °C"}

--- query ---
Look up melting point: `CCOC(=O)Nc1cc(N[C@H](C)C(=O)c2ccccc2)c([N+](=O)[O-])c(N)n1`
150 to 155 °C

====

readout_label: melting point

These recorded examples may help you get a feel for the data.
{"smiles_record": "CCCSc1sc(C(N)=O)c2c1-c1nn(C)cc1CC2", "melting point": "208 to 209 °C"}
{"smiles_record": "CN(C)C(=O)n1nc(C(C)(C)C)nc1SC(NS(C)(=O)=O)NS(C)(=O)=O", "melting point": "83 to 85 °C"}
{"smiles_record": "CCCCCC=C1SC(=S)N(CC(=O)O)C1=O", "melting point": "136 to 140 °C"}
{"smiles_record": "CN1CC(NCc2ccccc2)=Nc2ccc(Cl)cc2C1=O", "melting point": "158 to 160 °C"}
{"smiles_record": "O=C(Cn1ccnc1)CS(=O)(=O)c1ccccc1", "melting point": "137 to 140 °C"}
{"smiles_record": "COC(=O)COc1ccc(C(=O)c2cccs2)c2c1CCCC2", "melting point": "85 °C"}
{"smiles_record": "CCN(CC)C(=O)CCS(=O)(=O)c1cc(-c2ccccc2)nc2ccccc12", "melting point": "100 °C"}
{"smiles_record": "O=C(c1ccccc1)c1cc2ccnc(Cl)c2[nH]1", "melting point": "152 to 153 °C"}
{"smiles_record": "CC(C)(C)OC(=O)Nc1ccc(C#Cc2ccccn2)cc1N", "melting point": "178 °C"}
{"smiles_record": "O=C(Nc1cccc(Cl)c1)ONC1=Nc2ccc(Cl)cc2C(c2ccccc2)=NC1", "melting point": "158 to 159 °C"}

Any idea what its melting point is? The compound is `CCc1ccccc1C(N)=NO`
54 to 55 °C

====

melting point values, listed per item

Known results for molecules:
{"molecule": "Oc1cccc(-c2nc3cccc(CBr)c3o2)c1", "result": "225 to 228 °C"}
{"molecule": "CC(=O)OC1=C(c2nnc(C)o2)N(C)S(=O)(=O)c2ccccc21", "result": "188 to 190 °C"}

Can you look up the measured melting point of `CCCCc1nn(-c2cc(N)ccc2Cl)c(=O)n1Cc1ccc(-c2ccccc2S(=O)(=O)NC(=O)c2ccccc2Cl)cc1` for me?
155 to 157 °C

Which melting point is listed for CC1(C)C(=O)Oc2ccc3ccc(C(C#N)n4cncn4)cc3c21 (stereo not given) ?
196 to 198 °C

Could you share which melting point value was measured for `CN(C(=O)Nc1ccc(Cl)cc1)n1cnc2ccccc2c1=O` ?
186 to 188 °C

// provenance: a melting point compilation (Tetko et al.; mined from patent text by program, amines drawn as free bases though some values may be those of a salt)
